B1: library; numbered along this chain (parent)
chain: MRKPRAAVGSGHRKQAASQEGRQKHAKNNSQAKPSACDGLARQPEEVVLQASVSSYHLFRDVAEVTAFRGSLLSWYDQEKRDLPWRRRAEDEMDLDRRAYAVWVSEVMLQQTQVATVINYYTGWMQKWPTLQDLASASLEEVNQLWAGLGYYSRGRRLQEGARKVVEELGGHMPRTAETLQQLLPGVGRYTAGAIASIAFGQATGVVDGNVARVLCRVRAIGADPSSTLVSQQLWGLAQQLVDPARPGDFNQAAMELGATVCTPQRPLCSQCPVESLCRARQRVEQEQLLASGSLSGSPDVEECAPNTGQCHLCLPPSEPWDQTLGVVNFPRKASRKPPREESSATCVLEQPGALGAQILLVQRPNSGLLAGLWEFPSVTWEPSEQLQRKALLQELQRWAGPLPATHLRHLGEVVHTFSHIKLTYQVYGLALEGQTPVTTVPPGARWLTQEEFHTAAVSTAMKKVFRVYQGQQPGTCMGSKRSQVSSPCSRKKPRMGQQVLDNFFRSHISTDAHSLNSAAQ

variants of: B1; assay: 8OG:A repair function score (normalized; synonymous = 0, nonsense = -1) (normalized log-likelihood score); higher = more repair activity (WT-like); details: with 8OG:A DNA repair reporter (GFP) in HEK-293 MUTYH KO cells;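 note: cells sorted at 72 h after reporter transfection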
Category | rule: reported 8OG:A repair function score within range, see lowest: < -0.8; middle: ≥ -0.8 and < -0.1; highest: ≥ -0.1

As a guide, the following entries are already answered.
Mutations	Classification
G188R	lowest
D224L	lowest

Query block: // return the class label for `N517E`
Result block: highest

Query block: Which 8OG:A repair function score band matches `Y152W` ?
Result block: middle

Query block: Band for `I359F` ?
Result block: highest

Query block: Hello team, could you let me know which band the following variant falls into: `F59V`
Result block: middle

Query block: Exercise: read the entry `A220T` and state which class it falls under.
Result block: middle

Query block: State the band of `N503G`
Result block: highest

Query block: Class (by measured 8OG:A repair function score) for `D249C`
Result block: middle

Query block: Lab log: `W85G` — assign 8OG:A repair function score category
Result block: lowest

Query block: Which class is correct for the following variant? `L131C`
Result block: middle
